The compounds listed here are annotated with their TGI.
tested on: MDA-MB-435; test: NCI tumour cell line growth inhibition, 48 h
Where a SMILES comes first, the peptide text is derived from it. The star is where a group is joined. Boc = CC(C)(C)OC(=O)*
recordedMetric: TGI

| compound | result |
| --- | --- |
| CCOCC(NC(=O)C(CC(C)C)NC(=O)OC(C)(C)C)C(N)=O (stereo not drawn) (Boc-Leu-Ser(Et)-NH2; configuration not given here) | > 100 µM |
| COc1ccc(-c2csc(NC(=O)N3CCN(c4cc5c(cc4F)c(=O)c(C(=O)O)cn5C4CC4)CC3)n2)cc1 | > 100 µM |
| c1ccc(/N=C2\c3ccccc3CN2c2ccccn2)nc1 | > 100 µM |
| CC(=O)N1N=C(N)CC1=O | > 100 µM |
| O=C(CCc1ccccc1CO)NCCc1ccccc1 | > 100 µM |
| Cc1ccc2c(N/N=C\c3ccco3)cc(C)nc2n1 | 10.7 µM |
| O=C1/C(=C/c2ccccc2)CN(CCC(=O)N2C/C(=C\c3ccccc3)C(=O)/C(=C/c3ccccc3)C2)C/C1=C\c1ccccc1 | 5.68 µM |
| CCOP(=O)(OCC)/C(C#N)=C/c1cccn1N(C)C | > 100 µM |
| CCC(c1ccc(OC)cc1)C(CC)c1ccc(O)c(CN2CCCC2)c1 (stereo unspecified) | 4.76 µM |
| C=C1SC(=Nc2ccccc2Cl)N(C(=O)c2sc3ccccc3c2Cl)C1(C)C | 97 µM |
| Cc1cccc2c1NC(=O)[C@@]21[C@H](C(=O)c2ccccc2)[C@]2(C(=O)Nc3ccccc32)[C@H]2CCCN21 | > 100 µM |
| C#Cc1cccc(Nc2ncnc3ccc(-c4cnc(Cl)c(NS(C)(=O)=O)c4)cc23)c1 | 2.34 µM |
| CC(=O)O[C@H]1CC[C@@]2(C)C(=CC[C@@H]3[C@@H]2CC[C@]2(C)c4c(cc(C#N)c(=N)n4C(C)=O)C[C@@H]32)C1 | 38.5 µM |
| Cc1ccc(O)c(-c2csc(NCN3CCN(CNc4nc(-c5cc(C)ccc5O)cs4)CC3)n2)c1 | > 100 µM |
| CC(NC(=O)C(N)CC(=O)O)NC(=O)N1CCOCC1 (stereo unspecified) | > 100 µM |
| CC1=C(C(=O)Nc2ccccc2)C(c2ccc(C)o2)C(C#N)=C(SCc2ccccc2)N1 (stereo unspecified) | 24.6 µM |
| CSc1nncc2[nH]cnc12 | > 100 µM |
| CCOC(=O)c1cc(=O)oc2c1N(C)c1ncccc1N2 | > 100 µM |
| O=c1c(-c2ccccc2Cl)coc2cc(F)ccc12 | 4.31 µM |
| Oc1cccc(Cn2c(-c3cccc(O)c3O)nc3ccccc32)c1O | 15.3 µM |
| O=C1C(Cl)=C(Nc2cccc(O)c2)C(=O)N1c1cccc(Cl)c1 | > 100 µM |

----------
system: HOP-18 NSCLC; experiment: NCI tumour cell line growth inhibition, 48 h

| compound | TGI |
| --- | --- |
| C/C(=N\NS(=O)(=O)c1ccc(C)cc1)c1c(O)cc(C)oc1=O | > 100 µM |
| CCOC(=O)CNC1C(NC(C)=O)C(OC)OC2COC(c3ccccc3)OC21 (stereo not drawn) | > 100 µM |
| COc1cccc2c1C(=O)c1c(O)c3c(c(O)c1C2=O)C[C@@](O)(/C(C)=N/NC(=O)c1ccccc1)C[C@@H]3OC1CC(N)C(O)C(C)O1 (stereo partly drawn) | 6.61 µM |
| CC1=C(/C=C/C2=CC(=C\C(=O)O)/CC(C3=C(C)CCCC3(C)C)C2)C(C)(C)CCC1 (stereo not drawn) | 27 µM |
| O=C(O)CN(c1ccccc1)S(=O)(=O)c1ccc(Cl)cc1 | > 100 µM |
| NC(Cc1c[nH]c2ccccc12)C(=O)O (stereo not drawn) | 196 µM |
| Cc1ccc(NC(=O)CC/C(CC(=O)c2ccc(Cl)cc2)=N\NC(=O)C(=O)NN)cc1C | > 100 µM |
| CC(C(=O)c1ccccc1)C1(O)C(=O)Nc2ccccc21 (stereo not drawn) | > 100 µM |

----------
tested on: KM12 colon; test: NCI tumour cell line growth inhibition, 48 h; in the data active means GI50 below about 0.43 µM; inactive means the rest
Outcomes: yes (active), no (inactive)

| compound | group |
| --- | --- |
| COc1ccc2[nH]cc(/C=C3/C(=O)Nc4ccc(Cl)cc43)c2c1 | yes |
| COC(=O)c1cc2c3c(cc(O)c2[nH]1)N(C(=O)C1Cc2cc(OC)c(OC)c(OC)c2N1)CC3CCl (stereo not given) | yes |
| CCCCNC(=O)Oc1ccc2c(=O)c3sc4c(=O)c5ccccc5c(=O)c4c3c(=O)c2c1 | no |
| COc1ccccc1N1CCN(C(=O)c2ccc(NS(=O)(=O)c3cccc4cccnc34)cc2)CC1 | no |
| CN(C)Cc1cccc(CN(C)C)[c]1[Sn]([Br])([c]1ccccc1)[c]1ccccc1 | no |
| CCOC(=O)c1c(C)[nH]c(/C=C2\N=C(c3ccc[nH]3)C=C2OC)c1C | yes |
| COc1cc2c(=O)n(CCCn3ccnc3)c3c4cc5c(cc4ccc3c2cc1OC)OCO5 | no |
| COc1cc(C)[nH]c(=O)c1CN1CCc2c(Cl)cc([C@H](OC)C3COC3)c(Cl)c2C1=O | no |
| CNC(=O)c1cncc(/C=C/c2c(C)cccc2C)c1 | no |
| NCCCn1c2c(c3cc4c(cc3c1=O)OCO4)C(=O)c1ccccc1-2 | no |
| N#C/C(=C/C=C/c1ccccc1)S(=O)c1ccccc1 (stereo not given) | no |
| O=C(NC1CCN(Cc2ccccc2)CC1)c1cc(C(=O)NC2CCN(Cc3ccccc3)CC2)cc(C(=O)NC2CCN(Cc3ccccc3)CC2)c1 | no |
| O=C1/C=C/[C@@H](O)[C@@H]2C[C@@H](O)C[C@H]2/C=C/CCC[C@H](CO)O1 | no |
| Oc1ccc2ccccc2c1N=Nc1ccccn1 | no |
| C/C=C1\C(=O)O[C@@H]2C1C[C@@H]1O[C@H]2[C@H](C)CCC/C(C)=C/CC[C@@]1(C)O (stereo not given in full) | no |

----------
system: BT-549 breast; experiment: NCI tumour cell line growth inhibition, 48 h
recordedMetric: TGI

| compound | result |
| --- | --- |
| COc1cc2c(cc1OC)C(Cc1ccccc1CCCl)=NCC2 | > 100 µM |
| COc1ccccc1N1CCN(C(=O)c2ccc(NS(=O)(=O)c3cccc4cccnc34)cc2)CC1 | > 100 µM |
| O=C(CCc1ccccc1CO)NCCc1ccccc1 | > 100 µM |
| O=C(Nc1ccc(Cl)cc1)c1cc2cc(F)ccc2cc1O | 5.12 µM |
| COC1OC(CBr)C(OC(c2ccccc2)(c2ccccc2)c2ccccc2)C(OC(c2ccccc2)(c2ccccc2)c2ccccc2)C1OC(c1ccccc1)(c1ccccc1)c1ccccc1 (configuration not stated) | > 100 µM |
| O=C1OC(C2OC(=O)c3cc(O)c(O)c(O)c3-c3c(O)c(O)c4oc(=O)c5c(c(O)c(O)c6oc(=O)c3c4c65)-c3c(cc(O)c(O)c3O)C(=O)OCC2O)C2OC(=O)c3c(c(O)c(O)c(O)c3[C@H]2O)-c2c1cc(O)c(O)c2O (some centres not stated) | > 100 µM |
| COc1ccc(Cl)cc1NC(=O)c1c(NC(=O)C(F)(F)C(F)(F)F)sc2c1CCCCC2 | 7.23 µM |
| CN(C)CCNC(=O)c1ccc(NCCCN(C)CCCNc2ccc(C(=O)NCCN(C)C)c3[nH]c4ccc([N+](=O)[O-])cc4c(=O)c23)c2c(=O)c3cc([N+](=O)[O-])ccc3[nH]c12 | 2.64 µM |
| CCOC(=O)COc1c(OC)cc(C2C3=C(COC3=O)Oc3cc4c(cc32)OCO4)cc1OC (configuration not stated) | 98.1 µM |
| CN(C)CCCN=c1cc2c(=O)n(CCCN(C)C)c(=O)c3c(NCCCN(C)C)cc4c(O)n(CCCN(C)C)c(=O)c1c4c3-2 | 31.4 µM |
| COC1CC2C=CC3C4OC2(/C(C)=C/C(C)C(C(C)O)OC1=O)C3C(O)C(C)C4OC(=O)c1ccc[nH]1 (configuration not stated) | > 100 µM |
| O=CC1OC(=O)c2cc(O)c(O)c(O)c2-c2c(cc(O)c(O)c2O)C(=O)OC1C(O)C(O)CO (configuration not stated) | > 100 µM |
| C/C(=N\O)c1cccc(Nc2nc3ccccc3c3occc23)c1 | 26.9 µM |
| CCN(CC)CCSc1nc2c(c(=N)n1-c1ccccc1)c(=S)n(-c1ccccc1)c(=S)n2-c1ccccc1 | 5.98 µM |
| N=c1oc2ccc(Cl)cc2cc1C(=O)NCc1ccccc1 | > 100 µM |
| Cc1ccc2c(N/N=C\c3ccco3)cc(C)nc2n1 | 14.9 µM |
| Oc1cccc(Cn2c(-c3cccc(O)c3O)nc3ccccc32)c1O | 81.1 µM |
| O=C1/C(=C/c2ccccc2)CN(CCC(=O)N2C/C(=C\c3ccccc3)C(=O)/C(=C/c3ccccc3)C2)C/C1=C\c1ccccc1 | 36.4 µM |
| CCOC(=O)C#Cc1ccc([N+](=O)[O-])cc1 | 4.76 µM |
| CC1=C(C(=O)Nc2ccccc2)C(c2ccc(C)o2)C(C#N)=C(SCc2ccccc2)N1 (configuration not stated) | > 100 µM |
| CN(C)CCCn1c(-c2cc(C(C)(C)C)c(O)c(C(C)(C)C)c2)csc1=Nc1ccccc1 | 7.8 µM |
| N#C[C@@]12CCCC(=O)[C@@H]1[C@H]1CCC[C@H]12 | 39.2 µM |
| CC(NC(=O)C(N)CC(=O)O)NC(=O)N1CCOCC1 (configuration not stated) | > 100 µM |
| CC[C@@]1(O)C(=O)OCc2c1cc1n(c2=O)Cc2c-1nc1ccccc1c2/C=N\NC(=O)C(N)Cc1cnc[nH]1 (some centres not stated) | > 100 µM |
| CC(C)NC(=O)OCc1c(COC(=O)NC(C)C)c(-c2ccc[n+](COC(=O)C3CC3)c2)n2c1CCC2 | > 100 µM |
| CCOP(=O)(OCC)/C(C#N)=C/c1cccn1N(C)C | > 100 µM |
| COc1cc2c3c(n(Cc4ccccc4)c(=O)c2cc1OC)-c1ccccc1C3=O | > 100 µM |

Measured values drawn from PubChem BioAssay (NCI) for this set.
